All figures here come from PubChem BioAssay.

# measurement.protocol: inhibitors of TNFa-induced NFkB p65 translocation, primary screen, imaging, HUVEC, MLSMR starter and 10KST1 sets (AID 438);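 also: compound added about 3h40 before a 20 min TNFalpha stimulation; signal is the nuclear over cytoplasmic p65 intensity ratio per well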
# measurement.conditions: HUVEC TNFa-induced p65 nuclear translocation; at 2 µM, active compounds read high, 0% TNFa-plus-vehicle, 100% no-TNFa wells
parameter.measured: inhibition (%)
Could you give me the number in %? Just the number is fine.

Some molecules with known inhibition results, for comparison:
O=C1CC(c2ccco2)CC(O)=C1C=NCCN1CCN(C2CC(=O)N(c3ccccc3)C2=O)CC1 (configuration not stated) : -0.3
CCCCc1nccn1CCn1ccnc1CCCC : -5
O=C(c1ccncc1)N1CCN(C(=O)c2cccs2)CC1 : -3.3
O=C(c1ccc(S(=O)(=O)N2CCOCC2)cc1)N(c1ccc(F)cc1)C1C=CS(=O)(=O)C1 (configuration not stated) : -19.7
CCOC(=O)c1c(N)sc(=S)c2c1CCC2 : -6.2
CCOC(=O)N1CCN(C(=O)CSc2nnc(-c3cc(OC)cc(OC)c3)o2)CC1 : 8.2
Cn1c(NC(=O)c2ccccc2NC(=O)C(C)(C)C)nc2ccccc21 : -3.2
O=C(CCCc1cccs1)Nc1nc2c(s1)CCCC2 : 9.3
O=C(CCN1C(=O)COc2ccccc21)N1CCN(c2ccccn2)CC1 : -8.6
CC(=O)Nc1ccc(S(=O)(=O)NCc2cn3c(C)csc3n2)cc1 : -7.6

IN: Give inhibition for the following molecule: N#Cc1c(NC(NC(=O)c2ccco2)C(=O)c2ccccc2)sc2c1CCCC2 (configuration not stated)
OUT: -6

IN: Give inhibition for the following molecule: N#Cc1ccc(-c2ccc(OCC(O)Cn3nnc4ccccc43)cc2)cc1 (configuration not stated)
OUT: -15.6

IN: Give inhibition for the following molecule: CCn1c(C)cc(=S)c2ccccc21
OUT: -5.3

IN: Give inhibition for the following molecule: CCCSc1nc(N2CCOCC2)c2c(c1C#N)CCCC2
OUT: -12.9

IN: Give inhibition for the following molecule: O=C(Nc1cnn(Cc2ccc(F)cc2)c1)c1cnccn1
OUT: -17

IN: Give inhibition for the following molecule: CC1=C(C(=O)Nc2ccccc2)C(c2ccccn2)n2nc(CCCO)nc2N1 (configuration not stated)
OUT: 6.2

IN: Give inhibition for the following molecule: CC(C)Cn1c(N)c(C(=O)COC(=O)c2ccc3c(c2)OCCO3)c(=O)n(C)c1=O
OUT: -4.4

IN: Give inhibition for the following molecule: O=C(CN1C(=O)CCSc2ccccc21)Nc1ccccc1
OUT: -4.1

IN: Give inhibition for the following molecule: COC(=O)c1cc(OC)c(OC)cc1NC(=O)c1ccc(Br)o1
OUT: -7.2

IN: Give inhibition for the following molecule: CC12CN3CC(C)(CN(C1)C3c1ccc(Br)cc1O)C2 (configuration not stated)
OUT: -3

IN: Give inhibition for the following molecule: Cc1ccc(-c2nc3ccccc3[nH]2)s1
OUT: -13.1

IN: Give inhibition for the following molecule: CCCOc1ccc(C2C(C(=O)OC)=CN(CCOC)C=C2C(=O)OC)cc1
OUT: -11.3

IN: Give inhibition for the following molecule: COC(=O)c1ccc(C2/C(=C(\O)c3cccc(OC)c3)C(=O)C(=O)N2CCCN(C)C)cc1 (configuration not stated)
OUT: -19.7

IN: Give inhibition for the following molecule: Cc1nnc(NC(=O)CSc2cn(CCNC(=O)c3ccccc3)c3ccccc23)s1
OUT: -9.6

IN: Give inhibition for the following molecule: COc1ccc(-c2nc(CSCC(=O)N3CCc4ccccc4C3)c(C)o2)cc1OC
OUT: 6.9

IN: Give inhibition for the following molecule: CC(C)Nc1ncnc2c1cnn2-c1ccccc1
OUT: -6.7

IN: Give inhibition for the following molecule: COC(=O)Sc1nc(N2CCOCC2)c2c(c1C#N)CC(C)(C)OC2
OUT: -2

IN: Give inhibition for the following molecule: COc1ccc(-n2c(=O)c3c4c(sc3n3c(C)nnc23)CCCC4)cc1
OUT: 3.3

IN: Give inhibition for the following molecule: O=c1oc2c(CN3CCCCC3)c(O)ccc2c2c1CCCCC2
OUT: -6.1

IN: Give inhibition for the following molecule: Cc1ccc(C)c(N2CCN(C(=O)c3cc4ccccn4n3)CC2)c1
OUT: -2.9

IN: Give inhibition for the following molecule: CCOC(=O)CSc1nnc(CCc2nc3ccccc3[nH]2)n1C
OUT: -1

IN: Give inhibition for the following molecule: O=C(Nc1ccc2snnc2c1)N1CCN(c2ccccc2)CC1
OUT: 1.6

IN: Give inhibition for the following molecule: CS(=O)(=O)N1CCN(c2ccccc2NC(=O)c2cccs2)CC1
OUT: 0.5

IN: Give inhibition for the following molecule: O=C(CCn1c(=O)sc2ccccc21)Nc1nccs1
OUT: -22.3

----------
# study.system: Voltage-gated potassium channel subunit beta-2 (Rattus norvegicus) (UniProt P62483)
# Sequence (P62483 whole entry, looked up): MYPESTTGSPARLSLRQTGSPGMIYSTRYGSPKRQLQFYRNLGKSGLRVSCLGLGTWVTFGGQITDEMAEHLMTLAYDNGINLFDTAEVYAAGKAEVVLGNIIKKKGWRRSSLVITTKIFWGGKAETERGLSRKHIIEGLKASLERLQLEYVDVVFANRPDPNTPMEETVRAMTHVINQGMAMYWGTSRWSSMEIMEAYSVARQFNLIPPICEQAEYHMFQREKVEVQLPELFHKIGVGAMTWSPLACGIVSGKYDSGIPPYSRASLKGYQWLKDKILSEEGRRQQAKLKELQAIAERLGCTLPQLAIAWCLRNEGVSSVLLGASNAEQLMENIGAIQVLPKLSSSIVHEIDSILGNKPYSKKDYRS
# measurement.protocol: KvBeta enzyme negative modulators, primary screen, biochemical, NADPH fluorescence (AID 622);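 also: slope of raw intensity against log time taken from 70 to 1610 s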
# measurement.conditions: recombinant KvBeta, 4-cyanobenzaldehyde reduction, at 10 µM, active compounds read high
Answer n if fluorescence slope is under -0.4, and y if it is -0.4 or more.

CCn1c(=O)c(C(=O)NCCc2ccccc2)c(O)c2ccccc21 : y
COc1ccc(C(=O)c2ccc(N3CCOCC3)cc2)c(OC)c1 : n
Cc1cc(=O)oc(C)c1C(=O)NCC(C)NC(=O)c1c(C)cc(=O)oc1C (stereo not drawn) : y

IN: Form field: fluorescence slope at least -0.4? Entry: Oc1ccc(-c2n[nH]c(=S)n2Cc2ccccc2)cc1
OUT: n

IN: Form field: fluorescence slope at least -0.4? Entry: O=C(COc1cccc(Oc2ccccc2)c1)Nc1ncccn1
OUT: n

IN: Form field: fluorescence slope at least -0.4? Entry: N#Cc1c2c(c(-c3ccccc3)[nH]c1=O)CCCC2
OUT: y

IN: Form field: fluorescence slope at least -0.4? Entry: COc1ccc(OC)c(C2/C(=C(\O)c3ccc(OC)c(Cl)c3)C(=O)C(=O)N2CCN(C)C)c1 (stereo not drawn)
OUT: n

IN: Form field: fluorescence slope at least -0.4? Entry: O=C(Nc1ccccc1C(F)(F)F)c1cc(S(=O)(=O)N2CCOCC2)ccc1F
OUT: n

IN: Form field: fluorescence slope at least -0.4? Entry: C=CCN(C(=O)CCC(=O)O)C1CC(=O)N(c2ccc(OC)cc2)C1=O (stereo not drawn)
OUT: n

IN: Form field: fluorescence slope at least -0.4? Entry: C=CC[N+](C)(C)CCCNC(=O)/C=N/O
OUT: n

IN: Form field: fluorescence slope at least -0.4? Entry: CCOC(=O)C1=C(c2ccccc2)N2CCN=C2S1
OUT: n

IN: Form field: fluorescence slope at least -0.4? Entry: CCCSc1nnc2n(Cc3ccccc3)c(=O)c3c4c(sc3n12)CCC4
OUT: n

----------
# measurement.protocol: inhibitors of TNFa-induced NFkB p65 translocation, primary screen, imaging, HUVEC, MLSMR starter and 10KST1 sets (AID 438);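 also: compound added about 3h40 before a 20 min TNFalpha stimulation; signal is the nuclear over cytoplasmic p65 intensity ratio per well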
# measurement.conditions: HUVEC TNFa-induced p65 nuclear translocation; at 2 µM, active compounds read high, 0% TNFa-plus-vehicle, 100% no-TNFa wells
parameter.measured: inhibition (%)
Could you give me the number in %? Just the number is fine.

Cc1nnc(N2C(=O)c3oc4ccccc4c(=O)c3C2c2ccco2)s1 (configuration not stated) : -5.5
CCCC(=O)C1=C(N(C)c2ccccc2)CC(C)(C)C(C(=O)OC)C1=O (configuration not stated) : -0.3
CN1/C(=C\C(=O)C(F)F)C(C)(C)c2ccccc21 : 3.5

IN: Give inhibition for the following compound: Cc1cc(C)n(-c2nc3c(c(=O)n(Cc4ccc(Cl)c(Cl)c4)c(=O)n3C)n2C)n1
OUT: -1.4

IN: Give inhibition for the following compound: O=c1[nH]c(N2CCc3ccccc32)nc2c1CCCC2
OUT: 1.1

----------
# measurement.protocol: inhibitors of Chlamydomonas gravitaxis, primary screen, whole organism, Chlamydomonas reinhardtii, WT vs cilia-less mutant, absorbance, 96-well (AID 463189);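 also: 0% = wild type cc124 cells in DMSO and 100% = ciliumless bld1 mutant cells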
# measurement.conditions: OD600 absorbance, 2 days, at 10 µM
Calls of active or inactive are those of the source.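 The calls were made as follows: active = inhibition at or above 50% relative to wild type and mutant plate controls; inactive = inhibition below 50%.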
Log the outcome using a class from active, inactive

Cn1c(=O)c2c(nc(NCc3ccco3)n2Cc2ccc(Cl)cc2Cl)n(C)c1=O : inactive
CN1CCc2c(c3c(n2C)CCN(C)[C@@H]3c2cccnc2)[C@H]1c1cccnc1 : inactive
CC(=O)N1CCN(C2c3cccc4cccc(c34)C2NS(=O)(=O)c2ccccc2)CC1 (stereo not given) : inactive
N#Cc1nc(COc2ccccc2Cl)oc1NCc1ccc(F)cc1 : inactive
Cc1cccn2c(=O)c3cc(C(N)=S)c(=N)n(CCCOC(C)C)c3nc12 : active
COc1cccc(C(=O)OC2CCCN(C)C2)c1 (stereo not given) : inactive
O=S(=O)(N[C@@H]1C[C@H]2CC[C@@H]1C2)c1cccs1 : inactive
c1ccc2c(c1)[nH]c1c(N3CCSCC3)ncnc12 : inactive

IN: Would you mind telling me which call this test gave C=CCn1c(C2CC(=O)N(c3ccc(C)cc3)C2)nc2ccccc21 (stereo not given) ?
OUT: inactive

IN: Would you mind telling me which call this test gave Nc1nnnn1/N=C/c1cccc(Oc2ccccc2)c1 ?
OUT: inactive

IN: Would you mind telling me which call this test gave CCOC(=O)NC(Nc1cc(C)on1)(C(F)(F)F)C(F)(F)F ?
OUT: inactive
